# ASSAY OVERVIEW: yeast display, Sf9 membrane polyspecificity reagent, FACS + sequencing; frameworks hold sequencing errors
REPORTED PROPERTY: polyreactivity (PSR sort gate)

PRIMARY SEQUENCE | REPORTED RESULT
QVQLVESGGGLVQAGGSLRLSCAASGIIYWVNAMGWYRQAPGKERELVAVINRGTYYADSVKGRFTISRDNAKNTVYLQMNSLKPEDTAVYYRYAYTSTTEYDYWGLGTQVTVSS | low polyreactivity
QVQLVESGGGLDQAGGSLRLSCAASGFIYSSYGMGWYRQAPGKERELDAAISRSGGSTYYADSVKGRFTISRDNAKNTVYLEMNSLKPEDTAVYYCATAYSWRNADWFAYSYDYWGQGTQVTVSS | low polyreactivity
QVQLVESGGGLVQAGGSLRLSCAASGFTFYPNAMGWYRQAPGKERELVAAISRSGSSTYYADSVKGRFTISRDNAKNTVYLQMNSLKPEDTAVYYCNRYGRQYDFYYWGQGTQVTVSS | high polyreactivity
QVQLVESVGGLVQAGGSLRLSCAASGGIFNTYAMGWYRQAPGKEREFVAANSRRGGGTYYADSVKGRFTISRDNAKNTVYLQMNSLKPEDTAVYYCNADVKRGSRGYGSDHWGQGTQVTVSS | high polyreactivity
QVQLVESGGGLVQAGGSLRISCAASGRIFSWYVMGWYRQAPGKERELVAAISSGGSTYYADSVKGRFTISRDNAKNTVSFQMNSLKPEDTAVYYCAVRPYVYRIGASRLDYWGQGTQVTVSS | high polyreactivity
QVQLVESGGGLVQAGGSLRLSCAASGRIFVNNAMGWYRQAPGKERELVAAITGRGTRTYYADSVKGRFTISRDNAKNTVYLQMNSLKPEDTADYYCNAVSTAVIGYEYDYWGQGTQVTVSS | high polyreactivity
QVQLVESVGCLVQAGGSHRLSCAASVFIFGANAMGWYRQAPGKESELVAAIRWSSGTTYYADSVKGRFTISRDNAKNTVYLQINSLKPEDTAVYYCAAGGLARTWYAYYYWGQGTQVTVSS | low polyreactivity
QVQLVESGGGLVQAGGSLRLSCAASGRISIWYAMGWYRQAPGKERELVARISTSSGRTYYADSVKGRFTISRDNAKNTVYLQMNSLKPEDTAVYYCNAAGYRIYFSTRYDYWGQGTQVTVSS | high polyreactivity
QVQLVESGGGLVQAGGSLRLSCAAYGRIFTINAMGWYRQAPGKERELVASIRSTGGSTYYADSVKGRFTISRDNAKNTVYLQMNSLKPEDTAVYYCAADGGVAWGYGYWGQGTQVTVSS | low polyreactivity
QVQLVESGGGLVQAGGSLRLSCAASGSIFVYNVMGWYRQAPGKERELVAAISKTAGRTYYEDSVKGRFTISRDNAKNTVYLQMNSLKPEDTAVYYFAVGNKRDAYYQYSSYGYWGQGTQVTVSS | low polyreactivity
QVQLVESVGGLVQAGGSLRLSCAASGNIFSSYAMGWYRQAPGKERELVARITTSAGRTYDADSVKGRFTISRDNAKNTVDLQMNSLKPEDTPVYYCAVDWYGSYGYGGSQNSDYWGQGTQVTVSS | high polyreactivity

====

# ASSAY OVERVIEW: yeast display, Sf9 membrane polyspecificity reagent, FACS + sequencing; frameworks hold sequencing errors

PRIMARY SEQUENCE | polyreactivity (PSR sort gate)
QVQLVESGGGLVQAGGSLRLSCAASGNIFSFYAMGWNRPAPGKERELVAAINWSGGDTYYADSVKGRFTISRDNAKNTVYLQMNSLKPEDTAVYYCAAEYYYQYYPGGYDYWGQGTQVTVSS | high polyreactivity
QVQLVESGGGLVQAGGSLRLSCAASGFTFHFYAMGWYRQAPGKEREWVAAISWRGSSTYYADSVKGRFTISRDNAKNTVYLQMNSLKPEDTAVYYWNALYYYPYDYWGQGTQVTVSS | high polyreactivity

From: the nanobody polyreactivity screen of Harvey et al. (2022)
